Exercise: state measured SH2 binding enrichment for each of the sequences provided.
# target_entity: Grb2 SH2 (UniProt P62993)
# Sequence (P62993 whole entry, looked up, the tested form may be a part): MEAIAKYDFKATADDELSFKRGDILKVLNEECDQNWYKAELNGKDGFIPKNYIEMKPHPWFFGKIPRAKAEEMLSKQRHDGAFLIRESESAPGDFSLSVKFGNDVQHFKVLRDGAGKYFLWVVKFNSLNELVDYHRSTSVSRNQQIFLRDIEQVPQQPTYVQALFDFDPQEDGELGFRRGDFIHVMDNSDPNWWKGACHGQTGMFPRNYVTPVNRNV
# protocol_details: SH2 binding enrichment of the phosphorylated peptide, bacterial display (enrichment ratio); higher = better substrate or ligand; peptides without Tyr show the background;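 note: peptide library displayed on the E. coli surface as eCPX fusions, selected cells deep-sequenced, score is each peptide's frequency after selection divided by its frequency in the input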
// no unit string in output, number only

State measured SH2 binding enrichment of the sequence SGGGSYGSGGG [KRT1_Y539] with Grb2 SH2 (UniProt P62993).
0.526

Write down measured SH2 binding enrichment (Grb2 SH2 (UniProt P62993)) for this sequence. AVRYIYTIDGS [DCX_Y105_G100A]
0.979

Under Grb2 SH2 (UniProt P62993): report SH2 binding enrichment of ADLTEYLSTHY [UQCRC1_Y219] .
1.13

Enter recorded SH2 binding enrichment with Grb2 SH2 (UniProt P62993) for EVVGRYSLHNA [MLH1_Y183_V185L] here.
0.802

System Grb2 SH2 (UniProt P62993). Read-out SH2 binding enrichment. Item PVVKLYATDGR [RP1_Y199] . Report value.
0.876

Fetch value of SH2 binding enrichment on Grb2 SH2 (UniProt P62993) for IEEGTYGVVFR [CDK11B_Y449_YF] .
0.722

Look up Grb2 SH2 (UniProt P62993) data: SH2 binding enrichment of SPRDTYSDRIG [CTPS1_Y567_S571I] , then report it.
0.844

State SH2 binding enrichment on Grb2 SH2 (UniProt P62993). Entry: RLNWIYFKDQT [RS1_Y165_YF]
1.01

Give SH2 binding enrichment only, for DHKRQYELLKL [KIF4B_Y684_R680H] , using Grb2 SH2 (UniProt P62993) data.
0.79

Using Grb2 SH2 (UniProt P62993) as the test system, report measured SH2 binding enrichment of RFLRGYEQDAY [HLA-A_Y137_R138E] .
1.03

Lab note: Grb2 SH2 (UniProt P62993) assay, enter SH2 binding enrichment for FTAVGYHKHIT [NOMO1_Y1137] here
1.02

Quote Grb2 SH2 (UniProt P62993) SH2 binding enrichment for entry FSAGTYPRMEE [SYCN_Y108_L111M] .
0.869

Quote SH2 binding enrichment with test system Grb2 SH2 (UniProt P62993) for KTGDYYDLYGG [PTPN11_Y63_N58K]
0.858

// output SH2 binding enrichment; input ARMTNCGLPRY [TSPAN12_Y138_Y138C] ; system Grb2 SH2 (UniProt P62993)
1.25

Would you please give the reported SH2 binding enrichment of KKLHKYNTQFQ [PIK3R1_Y452_E451K] with Grb2 SH2 (UniProt P62993)?
1.42

Please look at HTLIKYTDGDQ [PUS7L_Y94] and tell me its recorded SH2 binding enrichment on Grb2 SH2 (UniProt P62993).
0.914

Param request: SH2 binding enrichment | system Grb2 SH2 (UniProt P62993) | item KYRREYILSLE [GPC3_Y299_W296R]
0.774

Give SH2 binding enrichment for this entry on Grb2 SH2 (UniProt P62993): TNRSVYFKPSL [NUP153_Y382]
0.948

Provide measured SH2 binding enrichment on Grb2 SH2 (UniProt P62993) for PQGVGYPQQQQ [EP300_Y2219_P2221Q] please.
0.588

Return reported SH2 binding enrichment for target or system Grb2 SH2 (UniProt P62993), item KTVQDYLKKFF [MMP8_Y36_E38K_YF] .
0.649

Specify SH2 binding enrichment for KKHFSYAWPFF [BRDT_Y291_YF] , system Grb2 SH2 (UniProt P62993).
1.8

Report SH2 binding enrichment on Grb2 SH2 (UniProt P62993) for this entry: FEEDSYVERSQ [RET_Y905_K907E_YF]
0.992

Give SH2 binding enrichment for this entry on Grb2 SH2 (UniProt P62993): PLDGEYFILQI [TP53_Y327_T329I]
0.651

Find SH2 binding enrichment for PLAVPYLDKPP [JMJD7_Y31] on Grb2 SH2 (UniProt P62993) and write it down.
0.867

Determine reported SH2 binding enrichment for CDTKLYTSVPN [DNTTIP2_Y427_A430V] ; test system: Grb2 SH2 (UniProt P62993).
0.728

Determine reported SH2 binding enrichment for CTTIHNNYMCN [TP53_Y234_Y234N] ; test system: Grb2 SH2 (UniProt P62993).
0.987

// fetch SH2 binding enrichment; item: CTTIHYNYMCT [TP53_Y234_N239T] ; system: Grb2 SH2 (UniProt P62993)
1.42

Enter SH2 binding enrichment (test system Grb2 SH2 (UniProt P62993)) for TLLAFYMGNFS [GLB1_Y552_P549L]
0.835

Please report the measured SH2 binding enrichment for HESEIYGKVCF [CSRP3_Y57_C58G_YF] tested on Grb2 SH2 (UniProt P62993).
0.998
